# target.or.system: CDC7/DBF4 (Cell division cycle 7-related protein kinase/Activator of S phase kinase) (Homo sapiens, UniProt O00311)
# test.name: Inhibition of recombinant human Cdc7 (1 to 574 residues)/human N-terminal GST-tagged DBF4 (1 to 674 residues) expressed in baculovirus expression system using His-tagged MCM2 as substrate preincubated for 10 mins followed by ATP addition by HTRF assay
parameter: IC50 (nM)
Give bare numbers, in nM.

Sample answers from the record:
compound: CN1c2cc(-c3ccncc3)sc2C(=O)NC1(C)C
parameter: IC50
reported.measurement: 9.9
--
compound: CCCC1(C)NC(=O)c2sc(-c3ccncc3)cc2N1 (stereo unspecified)
parameter: IC50
reported.measurement: 6.3
--
compound: CN1c2c(sc(-c3cn[nH]c3)c2Br)C(=O)NC1(C)C
parameter: IC50
reported.measurement: 9.5
--
compound: CC1(C)NC(=O)c2cc(-c3ccncc3)sc2N1
parameter: IC50
reported.measurement: 140
--
compound: O=C1NC2(CCCCC2)Nc2cc(-c3ccncc3)sc21
parameter: IC50
reported.measurement: 3

Please turn your attention to the following entry.
Please report the recorded IC50 for Cc1n[nH]cc1-c1cc2c(s1)C(=O)NC(C)(C)N2C . 2.9

Hello, the source for this data is ChEMBL document CHEMBL4177537, in case you need it.
